Data origin: patent US4849441A

# Test system: dd, male mice
# Experiment Summary: Acute toxicity test (mortality 7 days after administration)
# Format: in vivo
# Measurement Parameters: mortality at 7 days, minimum lethal dosage
Metric Name: Acute Toxicity (MLD) p.o. (mg/kg)
Give bare numbers, in mg/kg.

Worked examples follow.
INSERT INTO measurements (compound, target_desc, test_value) VALUES
  ('CCN(CC)CCN1C(=O)c2ccccc2C1c1ccccc1N(C)C (stereo not drawn)', 'dd, male mice', 100),
  ('CCCCN(CCCC)CCCN1C(=O)c2ccccc2C1c1ccccc1N (stereo not drawn)', 'dd, male mice', 100);

// for each compound in input: emit Acute Toxicity (MLD) p.o.
1. CCN(CC)CCN1C(=O)c2ccccc2C1c1ccc(N(C)C)cc1 (stereo not drawn)
2. CC(C)NCCN1C(=O)c2ccccc2C1c1ccccc1N (stereo not drawn)

100
300
